Give measured Foxtail, Giant plant response rating for each item. Keep answers brief.
# Tested on: giant foxtail
# runDescription: Test C pre-/postemergence herbicide test
# Format: in vivo, Setaria faberi
# conditionDetails: Preemergence, 500 g ai/ha; scale 0 to 100, 0 no effect, 100 complete control
Just the number, please, no unit after it.

Given the molecule `CCn1nc(C(C)(C)C)cc1C(=O)Nc1cccc(C(N)=O)n1` , write its reported Foxtail, Giant plant response rating. 75

Given the molecule `CC(=NO)c1cccc(NC(=O)c2cc(C(C)(C)C)nn2CCF)c1` , write its reported Foxtail, Giant plant response rating. 100

Given the molecule `C#CCn1nc(C(C)(C)C)cc1C(=O)Nc1cccc(C(=O)NCC)c1` , write its reported Foxtail, Giant plant response rating. 10

Given the molecule `CCNC(=O)c1cccc(NC(=O)c2sc(C(C)(C)C)nc2C)c1` , write its reported Foxtail, Giant plant response rating. 100

* * *

Give measured Barnyardgrass plant response rating for each item. Keep answers brief.
# System: barnyardgrass
# runDescription: Test B flooded paddy test
# Type: in vivo, Echinochloa crus-galli
# conditionDetails: 1000 g ai/ha, scale 0 to 100 (0 no effect, 100 complete control)
Just the number, please, no unit after it.

Given the molecule `CCn1nc(C(C)(C)C)cc1C(=O)Nc1cc(C(=S)N(C)C)ccc1F` , write its reported Barnyardgrass plant response rating. 90

Given the molecule `CCN(C)C(=O)c1cncc(NC(=O)c2cc(C(C)(C)C)nn2CC)c1` , write its reported Barnyardgrass plant response rating. 60

Given the molecule `CCn1nc(C(C)(C)C)cc1C(=O)Nc1cc(OCCF)ccc1F` , write its reported Barnyardgrass plant response rating. 0

Given the molecule `CCN(C)C(=O)c1ccc(F)c(NC(=O)c2nn(C(C)C)nc2C)c1` , write its reported Barnyardgrass plant response rating. 0

Given the molecule `Cc1nn(C(C)(C)C)nc1C(=O)Nc1cc(C(=O)N(C)C)ccn1` , write its reported Barnyardgrass plant response rating. 80

Given the molecule `CCN(CC)C(=O)c1cncc(NC(=O)c2nn(C(C)(C)C)nc2C)c1` , write its reported Barnyardgrass plant response rating. 0

Given the molecule `CCn1nc(C(C)(C)C)c(F)c1C(=O)Nc1cccc(C(=O)N(C)C)n1` , write its reported Barnyardgrass plant response rating. 70

Given the molecule `CCn1nc(C(C)(C)C)cc1C(=S)Nc1cc(C(=S)N(C)C)ccc1F` , write its reported Barnyardgrass plant response rating. 90

Given the molecule `CCn1nc(C2(C)CC2)cc1C(=O)Nc1cccc(C(=O)N(C)C)c1` , write its reported Barnyardgrass plant response rating. 90

Given the molecule `CCOC(=O)c1ccc(F)c(NC(=S)c2cc(C(C)(C)C)nn2CC)c1` , write its reported Barnyardgrass plant response rating. 40

Given the molecule `CCOC(=O)c1cc(NC(=O)c2cc(C(C)(C)C)nn2CC)c(F)cc1F` , write its reported Barnyardgrass plant response rating. 0

Given the molecule `CCOC(=O)c1cncc(NC(=O)c2nn(C(C)(C)C)nc2C)c1` , write its reported Barnyardgrass plant response rating. 30

Given the molecule `CCn1nc(C(C)(C)C)cc1C(=O)Nc1cccc(OC(F)F)c1` , write its reported Barnyardgrass plant response rating. 60

Given the molecule `Cc1nn(C(C)C)nc1C(=O)Nc1cccc(C(=O)N2CC=CC2)c1` , write its reported Barnyardgrass plant response rating. 90

Given the molecule `CCNC(=O)c1ccnc(NC(=O)c2nn(C(C)(C)C)nc2C)c1` , write its reported Barnyardgrass plant response rating. 40

Given the molecule `C=CCNC(=O)c1ccc(F)c(NC(=O)c2nn(C(C)(C)C)nc2CC)c1` , write its reported Barnyardgrass plant response rating. 30

Given the molecule `CCc1nn(C2CCCC2)nc1C(=O)Nc1cccc(C(=O)N2CC=CC2)c1` , write its reported Barnyardgrass plant response rating. 40

Given the molecule `CCn1nc(C(C)(C)C)cc1C(=O)Nc1cccc(C(=O)N2CCCC2)n1` , write its reported Barnyardgrass plant response rating. 90
